system under test: hT1R2/T1R3 taste receptor (Homo sapiens, UniProt Q7RTX0+Q8TE23)
Sequence (Q8TE23 20-839): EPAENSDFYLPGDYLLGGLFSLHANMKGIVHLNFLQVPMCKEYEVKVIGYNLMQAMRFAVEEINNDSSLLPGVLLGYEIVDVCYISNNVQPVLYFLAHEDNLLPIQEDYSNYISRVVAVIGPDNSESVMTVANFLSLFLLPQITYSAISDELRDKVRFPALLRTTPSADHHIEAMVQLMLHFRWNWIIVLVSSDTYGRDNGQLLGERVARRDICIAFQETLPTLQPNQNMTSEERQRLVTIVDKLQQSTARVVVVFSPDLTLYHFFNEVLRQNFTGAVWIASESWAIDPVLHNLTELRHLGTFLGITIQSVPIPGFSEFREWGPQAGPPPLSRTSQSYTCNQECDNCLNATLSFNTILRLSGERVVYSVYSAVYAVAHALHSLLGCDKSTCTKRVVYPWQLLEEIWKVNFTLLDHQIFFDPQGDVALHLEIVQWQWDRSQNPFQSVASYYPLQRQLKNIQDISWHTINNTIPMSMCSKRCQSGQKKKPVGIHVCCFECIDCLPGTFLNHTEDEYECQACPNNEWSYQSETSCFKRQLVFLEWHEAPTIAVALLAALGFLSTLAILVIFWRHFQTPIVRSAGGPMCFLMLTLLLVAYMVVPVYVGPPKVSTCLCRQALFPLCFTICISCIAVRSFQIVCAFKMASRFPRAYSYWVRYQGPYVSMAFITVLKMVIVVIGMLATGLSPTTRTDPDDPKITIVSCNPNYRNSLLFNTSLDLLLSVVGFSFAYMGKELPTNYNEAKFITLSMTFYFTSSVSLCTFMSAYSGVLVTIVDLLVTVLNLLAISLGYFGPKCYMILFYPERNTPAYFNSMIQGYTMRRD
Sequence (Q7RTX0 21-852): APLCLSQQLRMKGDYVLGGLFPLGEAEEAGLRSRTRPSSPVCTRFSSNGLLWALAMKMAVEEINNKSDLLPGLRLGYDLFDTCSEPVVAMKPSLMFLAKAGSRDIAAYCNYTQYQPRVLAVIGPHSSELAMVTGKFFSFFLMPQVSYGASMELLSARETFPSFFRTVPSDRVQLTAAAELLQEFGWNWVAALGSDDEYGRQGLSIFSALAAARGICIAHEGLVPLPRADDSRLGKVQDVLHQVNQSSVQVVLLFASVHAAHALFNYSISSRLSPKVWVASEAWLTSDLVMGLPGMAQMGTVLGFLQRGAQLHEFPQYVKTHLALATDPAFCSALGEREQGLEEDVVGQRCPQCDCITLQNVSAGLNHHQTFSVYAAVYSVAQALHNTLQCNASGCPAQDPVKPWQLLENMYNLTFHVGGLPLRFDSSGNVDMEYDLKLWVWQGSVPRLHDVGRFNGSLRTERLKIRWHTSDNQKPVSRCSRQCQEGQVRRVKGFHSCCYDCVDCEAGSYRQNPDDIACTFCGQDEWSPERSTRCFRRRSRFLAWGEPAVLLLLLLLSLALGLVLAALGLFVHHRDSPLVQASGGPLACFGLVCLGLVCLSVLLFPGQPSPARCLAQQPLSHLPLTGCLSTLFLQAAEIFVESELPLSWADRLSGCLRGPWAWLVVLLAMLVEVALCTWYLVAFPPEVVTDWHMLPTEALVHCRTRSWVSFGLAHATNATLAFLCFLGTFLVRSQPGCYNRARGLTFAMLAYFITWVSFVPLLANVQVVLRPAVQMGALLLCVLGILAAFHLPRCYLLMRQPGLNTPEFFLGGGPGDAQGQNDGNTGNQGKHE
procedure summary: agonist activity against the hT1R2/T1R3 taste receptor (sweet receptor based assay)
Type: cell-based
reported conditions: agonist activity, hT1R2/T1R3; read-out: Sweet EC50
pEC50: −log10 of the molar value.
measured parameter: pEC50

# example entries with known answers
COc1ccccc1N1CCN(C(C)(C)C(=O)NCC(C)C)CC1; < 5.00
Cc1cccc(N2CCN(C(C)(C)C(=O)NC(C)(C)CO)CC2)c1C; < 5.00
CC(C)CNC(=O)C(C)(C)N1CCN(c2cccc(F)c2)CC1; < 5.00
CC(C)CNC(=O)C(C)(C)N1CCC(c2cccc(CN(C)C)c2)CC1; < 5.00
CC(C)CNC(=O)C(C)(C)N1CCC(c2ccc(F)cc2)CC1; 5.21

Memo: `Cc1cccc(N2CCN(C(C)(C)C(=O)NCC(C)(C)C)CC2)c1C` , reported pEC50: < 5.00

Memo: `CC(C)(C(=O)NC1CCC1)N1CCC(c2ccccc2)CC1` , reported pEC50: < 5.00

Memo: `CC(C)CNC(=O)C(C)(C)N1CCN(c2ccc(F)cc2F)CC1` , reported pEC50: < 5.00

Memo: `CC(C)CNC(=O)C(C)(C)N1CCC(c2ccccc2N(C)C)CC1` , reported pEC50: < 5.00

Memo: `Cc1cccc(N2CCN(CC(=O)NC3CC3)CC2)c1C` , reported pEC50: < 5.00

Memo: `Cc1ncccc1C1CCN(C(C)(C)C(=O)NCC(C)C)CC1` , reported pEC50: < 5.00

Memo: `CCNC(=O)C(C)(C)N1CCN(c2cccc(C)c2C)CC1` , reported pEC50: < 5.00

Cited source for all entries: patent US20250280861A1
